Listing: MIC of selected molecules
Test system: Escherichia coli
Assay: Antibacterial activity against Escherichia coli R477-100 by double-microdilution method
Type: functional
# output: numeric value plus its unit

{"MOLECULE": "NC[C@@H]1O[C@H](O[C@H]2[C@@H](O)[C@H](O[C@@H]3[C@@H](O)[C@H](N)C[C@H](N)[C@H]3O[C@H]3O[C@H](CN)[C@@H](O)[C@H](O)[C@H]3N)O[C@@H]2C(=O)Nc2ccc(-c3cn(Cc4cccc(CN5CCN(c6cc7c(cc6F)c(=O)c(C(=O)O)cn7C6CC6)CC5)c4)nn3)cc2)[C@H](N)[C@@H](O)[C@@H]1O", "MEASUREMENT": "6 µg/mL"}
{"MOLECULE": "NC[C@@H]1O[C@H](O[C@H]2[C@@H](O)[C@H](O[C@@H]3[C@@H](O)[C@H](N)C[C@H](N)[C@H]3O[C@H]3O[C@H](CN)[C@@H](O)[C@H](O)[C@H]3N)O[C@@H]2CO)[C@H](N)[C@@H](O)[C@@H]1O", "MEASUREMENT": "24 µg/mL"}
{"MOLECULE": "NC[C@@H]1O[C@H](O[C@H]2[C@@H](O)[C@H](O[C@@H]3[C@@H](O)[C@H](N)C[C@H](N)[C@H]3O[C@H]3O[C@H](CN)[C@@H](O)[C@H](O)[C@H]3N)O[C@@H]2C(=O)Nc2ccc(-c3cn(CCCCCCN4CCN(c5cc6c(cc5F)c(=O)c(C(=O)O)cn6C5CC5)CC4)nn3)cc2)[C@H](N)[C@@H](O)[C@@H]1O", "MEASUREMENT": "6 µg/mL"}
{"MOLECULE": "NC[C@@H]1O[C@H](O[C@H]2[C@@H](O)[C@H](O[C@@H]3[C@@H](O)[C@H](N)C[C@H](N)[C@H]3O[C@H]3O[C@H](CN)[C@@H](O)[C@H](O)[C@H]3N)O[C@@H]2C(=O)Nc2ccc(-c3cn(Cc4ccc(CN5CCN(c6cc7c(cc6F)c(=O)c(C(=O)O)cn7C6CC6)CC5)cc4)nn3)cc2)[C@H](N)[C@@H](O)[C@@H]1O", "MEASUREMENT": "1.5 µg/mL"}
{"MOLECULE": "NC[C@@H]1O[C@H](O[C@H]2[C@@H](O)[C@H](O[C@@H]3[C@@H](O)[C@H](N)C[C@H](N)[C@H]3O[C@H]3O[C@H](CN)[C@@H](O)[C@H](O)[C@H]3N)O[C@@H]2C(=O)NCc2cn(CCCCCN3CCN(c4cc5c(cc4F)c(=O)c(C(=O)O)cn5C4CC4)CC3)nn2)[C@H](N)[C@@H](O)[C@@H]1O", "MEASUREMENT": "24 µg/mL"}

Lab book: MIC of NC[C@@H]1O[C@H](O[C@H]2[C@@H](O)[C@H](O[C@@H]3[C@@H](O)[C@H](N)C[C@H](N)[C@H]3O[C@H]3O[C@H](CN)[C@@H](O)[C@H](O)[C@H]3N)O[C@@H]2C(=O)NCc2cn(CC(O)CN3CCN(c4cc5c(cc4F)c(=O)c(C(=O)O)cn5C4CC4)CC3)nn2)[C@H](N)[C@@H](O)[C@@H]1O (some centres not stated) noted as 6 µg/mL

Lab book: MIC of "NC[C@@H]1O[C@H](O[C@H]2[C@@H](O)[C@H](O[C@@H]3[C@@H](O)[C@H](N)C[C@H](N)[C@H]3O[C@H]3O[C@H](CN)[C@@H](O)[C@H](O)[C@H]3N)O[C@@H]2C(=O)NCc2cn(CCCN3CCN(c4cc5c(cc4F)c(=O)c(C(=O)O)cn5C4CC4)CC3)nn2)[C@H](N)[C@@H](O)[C@@H]1O" noted as 12 µg/mL

Lab book: MIC of "NC[C@@H]1O[C@H](O[C@H]2[C@@H](O)[C@H](O[C@@H]3[C@@H](O)[C@H](N)C[C@H](N)[C@H]3O[C@H]3O[C@H](CN)[C@@H](O)[C@H](O)[C@H]3N)O[C@@H]2C(=O)Nc2ccc(-c3cn(CCN4CCN(c5cc6c(cc5F)c(=O)c(C(=O)O)cn6C5CC5)CC4)nn3)cc2)[C@H](N)[C@@H](O)[C@@H]1O" noted as 12 µg/mL

Lab book: MIC of "NC[C@@H]1O[C@H](O[C@H]2[C@@H](O)[C@H](O[C@@H]3[C@@H](O)[C@H](N)C[C@H](N)[C@H]3O[C@H]3O[C@H](CN)[C@@H](O)[C@H](O)[C@H]3N)O[C@@H]2C(=O)Nc2ccc(-c3cn(CCCCN4CCN(c5cc6c(cc5F)c(=O)c(C(=O)O)cn6C5CC5)CC4)nn3)cc2)[C@H](N)[C@@H](O)[C@@H]1O" noted as 12 µg/mL

Lab book: MIC of "NC[C@@H]1O[C@H](O[C@H]2[C@@H](O)[C@H](O[C@@H]3[C@@H](O)[C@H](N)C[C@H](N)[C@H]3O[C@H]3O[C@H](CN)[C@@H](O)[C@H](O)[C@H]3N)O[C@@H]2C(=O)NCc2cn(CCN3CCN(c4cc5c(cc4F)c(=O)c(C(=O)O)cn5C4CC4)CC3)nn2)[C@H](N)[C@@H](O)[C@@H]1O" noted as 12 µg/mL

Lab book: MIC of "NC[C@@H]1O[C@H](O[C@H]2[C@@H](O)[C@H](O[C@@H]3[C@@H](O)[C@H](N)C[C@H](N)[C@H]3O[C@H]3O[C@H](CN)[C@@H](O)[C@H](O)[C@H]3N)O[C@@H]2C(=O)NCc2cn(Cc3ccc(CN4CCN(c5cc6c(cc5F)c(=O)c(C(=O)O)cn6C5CC5)CC4)cc3)nn2)[C@H](N)[C@@H](O)[C@@H]1O" noted as 6 µg/mL

Lab book: MIC of "NC[C@@H]1O[C@H](O[C@H]2[C@@H](O)[C@H](O[C@@H]3[C@@H](O)[C@H](N)C[C@H](N)[C@H]3O[C@H]3O[C@H](CN)[C@@H](O)[C@H](O)[C@H]3N)O[C@@H]2C(=O)NCc2cn(Cc3cccc(CN4CCN(c5cc6c(cc5F)c(=O)c(C(=O)O)cn6C5CC5)CC4)c3)nn2)[C@H](N)[C@@H](O)[C@@H]1O" noted as 6 µg/mL
